Tested on: Human immunodeficiency virus
Test Details: Fold resistance, ratio of IC50 for HIV reverse transcriptase with Y188C mutant to IC50 for HIV wild type reverse transcriptase
Values of Ratio IC50 greater than or equal to 0.4 map to TRUE; values below map to FALSE.

Compound Structure String	Class Label
CCc1nn(CCO)c(CC)c1Oc1cc(Cl)cc(C#N)c1	FALSE
CCc1nn(CCO)c(CC)c1Oc1cc(F)cc(C#N)c1	TRUE
CCc1nn(CCO)c(CC)c1Oc1cccc(C#N)c1	FALSE
O=C1Nc2ccc(Cl)cc2[C@@](C#CC2CC2)(C(F)(F)F)O1	TRUE

###

Test Details: Cytotoxicity against human SupT1 cells
Assay type: cell-based
Settings: sup-t1
Quantity Name: CC30

Compound Structure String	Result
CCc1nn(CCO)c(CC)c1Oc1cc(C#N)cc(C#N)c1	> 30 µM
CCc1n[nH]c(CC)c1Oc1cc(Cl)cc(C#N)c1	2.4 µM
CCc1nn(CCN)c(CC)c1Oc1cc(C)cc(C#N)c1	> 30 µM

###

System: Human immunodeficiency virus
Test Details: Fold resistance, ratio of IC50 for HIV reverse transcriptase with L100I mutant to IC50 for HIV wild type reverse transcriptase
Quantity Name: Ratio IC50

Compound	Quantity Name	Number
CCc1nn(CCO)c(CC)c1Oc1cc(Cl)cc(C#N)c1	Ratio IC50	13
O=C1Nc2ccc(Cl)cc2[C@@](C#CC2CC2)(C(F)(F)F)O1 [EFAVIRENZ]	Ratio IC50	5.6
CCc1nn(CCN)c(CC)c1Oc1cc(C)cc(C#N)c1	Ratio IC50	5.9
CCc1nn(CCO)c(CC)c1Oc1cccc(C#N)c1	Ratio IC50	2.9
CCc1nn(CCO)c(CC)c1Oc1cc(F)cc(C#N)c1	Ratio IC50	4.3

###

System: Human immunodeficiency virus
Test Details: Antiviral activity against HIV RF infected in human SupT1 cells
Type: functional, organism-based
Settings: Human immunodeficiency virus 1, RF, SUP-T1
Each item that follows carries a reported log10(IC90).
Quantity Name: log10(IC90) (log10 of the value in nM)

Compound Structure String	Test Target	log10(IC90)
CCc1n[nH]c(CC)c1Oc1cc(Cl)cc(C#N)c1	Human immunodeficiency virus	1.26
CCc1n[nH]c(CC)c1Oc1cc(C)cc(C#N)c1	Human immunodeficiency virus	0.83
CC(C)c1nc(COC(N)=O)n(Cc2ccncc2)c1Sc1cc(Cl)cc(Cl)c1	Human immunodeficiency virus	0.38
O=C1Nc2ccc(Cl)cc2[C@@](C#CC2CC2)(C(F)(F)F)O1	Human immunodeficiency virus	0.08
CCc1nn(CCO)c(CC)c1Oc1cc(C#N)cc(C#N)c1	Human immunodeficiency virus	1.40
CCc1nn(CCO)c(CC)c1Oc1cc(Cl)cc(C#N)c1	Human immunodeficiency virus	0.73
CCc1nn(CCN)c(CC)c1Oc1cc(Cl)cc(C#N)c1	Human immunodeficiency virus	0.38
CCc1n[nH]c(CC)c1Oc1cc(C#N)cc(C#N)c1	Human immunodeficiency virus	1.77
CCc1nn(CCN)c(CC)c1Oc1cc(C)cc(C#N)c1	Human immunodeficiency virus	0.54
CCc1nn(CCO)c(CC)c1Oc1cc(F)cc(C#N)c1	Human immunodeficiency virus	1.40
CCc1nn(CCN)c(CC)c1Oc1cc(C#N)cc(C#N)c1	Human immunodeficiency virus	2.00
CCc1nn(CCO)c(CC)c1Oc1cc(C)cc(C#N)c1	Human immunodeficiency virus	0.48
CCc1nn(CCN)c(CC)c1Oc1cc(F)cc(C#N)c1	Human immunodeficiency virus	2.12
